test: in vivo; conditions: monkey, plasma, po, 32 mg/kg
MEASUREMENT_NAME: half-life (h)
All answers are understood in h, so give the number only.

Look up half-life of `OCCCCO` and report it.
4.13

====

experiment: in vivo; settings: monkey, plasma, po, 180 mg/kg
MEASUREMENT_NAME: AUC (µM·h)
# value in µM·h; strip the unit string

Input `OCCCCO` , output reported AUC.
942

====

assay: in vivo; conditions: plasma, po, 180 mg/kg
MEASUREMENT_NAME: half-life

Supply reported half-life belonging to this compound: OCCCCO [1,4-BD, 1,4-butanediol]
< 1 h

====

assay: Pharmacokinetics: GHB in plasma after intragastric GHB, GBL or 1,4-BD; conditions: monkey, plasma, po, 320 mg/kg
MEASUREMENT_NAME: Cmax

Using the record for O=C(O)CCCO [GHB, Gamma-hydroxybutyrate] , state its measured Cmax.
598 to 1940 µM

====

assay: in vivo; settings: monkey, plasma, po, 100 mg/kg
MEASUREMENT_NAME: Cmax

Note down Cmax recorded for `OCCCCO`
47.8 to 590 µM

====

assay: in vivo; conditions: monkey, plasma, po, 180 mg/kg
MEASUREMENT_NAME: half-life (min)
Provide only the numeric value, understood in min.

For `OCCCCO` , write its half-life.
42.7

====

test: in vivo; details: monkey, plasma, po, 32 mg/kg
MEASUREMENT_NAME: Cmax

Output measured Cmax for this item: `OCCCCO`
5.3 to 7.7 µM

// data source = paper PMC2682635
